So I've got a bunch of compounds here, and I need their melting point values.

See these solved cases before continuing.
{"compound": "Nc1cc2[nH]c(=O)[nH]c2c2ccccc12", "melting point": "295 to 296 °C"}
{"compound": "CCC(N1CCC(Oc2c(F)c(F)c(F)c(F)c2F)CC1)n1c(=O)[nH]c2ccccc21 (stereo unspecified)", "melting point": "117 to 120 °C"}
{"compound": "N#Cc1ccccc1Cn1cc(C(=O)C(=O)NC2=CC(=O)OC2)c2ccccc21", "melting point": "229 to 231 °C"}
{"compound": "NC(=O)C(Nc1ccccc1[N+](=O)[O-])c1c(Cl)cccc1Cl (stereo unspecified)", "melting point": "182 °C"}
{"compound": "NC(=O)/C=C/c1cc2c(Oc3ccc(Cl)cc3)cncc2s1", "melting point": "176 to 178 °C"}
{"compound": "C=CCCC1(C(F)(F)F)OC(=O)Nc2ccc(Cl)cc21 (racemic)", "melting point": "165 to 166 °C"}
{"compound": "CN(C(=O)OC(C)(C)C)c1cc(Oc2ccc(-c3ccccc3)cc2)ccc1N", "melting point": "122 to 123 °C"}
{"compound": "CCOC(=O)c1ccc2cncc(I)c2n1", "melting point": "135 to 137 °C"}

Hi! Can you tell me melting point for each of these compounds?
1. O=C(OCCCCCCCCCCCCBr)C1CC1
2. COc1ccc(C(=O)c2ccc(NC(C)=O)cc2)cc1
3. CSc1ccc(C(=O)N2CC2C#N)nn1 (stereo unspecified)
4. COc1c(-c2cc3c(s2)C(O)CCC3)ccc2c(=O)c(C(=O)O)cn(C3CC3)c12 (stereo unspecified)
5. c1ccc(CN(CCNC(c2ccccc2)c2ccccc2)Cc2ccccc2)cc1
6. CNC(=O)c1ccccc1Nc1nc(Nc2ccc3c(c2OC)CCCC(=O)N3CCOC)ncc1Cl
7. O=C(Nc1nccs1)C(CC1CCCC1)c1ccc(F)c(C(F)(F)F)c1 (stereo unspecified)
8. O=C1c2ccccc2-n2cnc(Br)c2[C@@H]2CCCN12

["29 to 31 °C", "160 to 162 °C", "97 to 100 °C", "238 to 240 °C", "89 to 91 °C", "205 to 207 °C", "125 to 127 °C", "225 to 226 °C"]

Please supply melting point for each of the following items, keeping them in order.
1. O=C1CCC(C(=O)O)(c2ccccc2)CC1
2. CC(CCc1cccc(OCCC(NC(=O)OCc2ccccc2)C(=O)O)c1)=NNC=NN (stereo unspecified)

["136 to 140 °C", "95 to 100 °C"]

Need melting point for each of these compounds.
1. Cn1cc(C2=C(c3ccc4ccccc4c3)C(=O)NC2=O)c2ccccc21
2. COc1cc2c(C3=CCN(C[C@H](O)COc4cccc5[nH]ccc45)CC3)c[nH]c2cc1Cl
3. Cc1c(Cl)cccc1NCc1ccccc1Cl
4. CCc1nc2c(C)cc(C)nc2n1Cc1ccc(C(c2ccccc2)C(C)(C)C(=O)O)cc1 (stereo unspecified)
5. CC1=CC(C)(C)Nc2cc3oc(=O)cc(C)c3cc21
6. O=C(NC(Cc1c[nH]c2ccccc12)C(=O)NCc1cc(C(F)(F)F)cc(C(F)(F)F)c1)c1ccccc1 (stereo unspecified)

["180 to 184 °C", "115 to 120 °C", "63 to 66 °C", "103 to 106 °C", "270 to 274 °C", "182 to 184 °C"]

====

I'd be grateful if you could share measured melting point for these entries.

// worked examples, melting point included
{"compound": "Nc1nc(Nc2ccc(S(N)(=O)=O)cc2)sc1C(=O)c1c(Cl)cc(C(F)(F)F)cc1Cl", "observationType": "melting point", "valueObserved": "294 to 296 °C"}
{"compound": "O=C(Cc1ccc(F)cc1)c1ccc(OC(F)F)cc1", "observationType": "melting point", "valueObserved": "50 to 56 °C"}
{"compound": "CCOC(=O)C(CC=Cc1ccc(Cl)cc1)S(=O)(=O)c1ccc(C)cc1 (stereo not given)", "observationType": "melting point", "valueObserved": "87 to 88 °C"}
{"compound": "COc1cscc1NC=O", "observationType": "melting point", "valueObserved": "95 to 97 °C"}

Moving on to another compound below.
Reported melting point for "CC(C)(C)OC(=O)N1CCC(c2c(F)cc(N3C[C@H](COS(C)(=O)=O)OC3=O)cc2F)CC1" was 125 to 126 °C

====

Exercise: state measured melting point for each of the compounds provided.

// solved cases for melting point follow
{"compound": "O=C(O)C12CC3CC(F)(CC(F)(C3)C1)C2", "melting point": "162 to 164 °C"}
{"compound": "CN1C(=O)CN=C(c2ccccc2F)c2c1ccc(NC(=O)NC(C)(C)C)c2Cl", "melting point": "206 to 208 °C"}
{"compound": "CCO/C(=N/O)C1Cc2cc(C(=O)c3ccccc3F)c(O)c(Cl)c2O1 (stereo unspecified)", "melting point": "171 to 172 °C"}
{"compound": "CS(=O)(=O)c1ccc2c(c1)C(=O)Cc1ccccc1O2", "melting point": "105 to 106 °C"}
{"compound": "FC(F)(F)c1ccc(C2=NNCC2c2ccccc2)cc1 (stereo unspecified)", "melting point": "98 to 112 °C"}

// "Cc1nc2ccccc2c2ccc(F)cc12" : melting point value = 92 to 93 °C

====

observationType: melting point

{"molecule": "COc1ccc(-c2ccc(N)nn2)cc1OCC(C)C", "valueObserved": "187 °C"}

Please report melting point for every entry that follows.
1. O=C1OC2(CCN(CCC(O)c3ccccc3)CC2)c2ccccc21 (stereo not given)
2. FC(F)(F)c1cnc2nc1Nc1cccc(c1)/C=C\c1cccc(c1)N2
3. O=C(CCN1CCC(C(O)(c2ccc(F)cc2)c2ccc(F)cc2)CC1)N(c1ccccc1)c1ccccc1
4. N#Cc1ccc(-c2ccc(C(=O)O)cn2)cc1

144 to 146 °C
167 to 169 °C
160 to 162 °C
> 260 °C

====

So I've got a bunch of molecules here, and I need their melting point values.

Consider the following illustrative entries.
{"molecule": "COc1ccccc1C=Cc1nc2c([nH]1)c(=O)n(C)c(=O)n2C", "melting point": "> 300 °C"}
{"molecule": "COc1ccc2[nH]c(SCc3ncc(C)c(N4CCCCC4)c3Cl)nc2c1", "melting point": "154 to 156 °C"}
{"molecule": "CCOC(=O)Cn1ncc(-c2ccccc2)c1-c1ccc(N(C)C)cc1", "melting point": "99 to 101 °C"}
{"molecule": "CC(C)OC(=O)c1nc2ccc(OCCCN3CCC(OC(c4ccccc4)c4ccccc4)CC3)nn2n1", "melting point": "126 to 127 °C"}
{"molecule": "C=C(C)C(=O)OC(c1ccccc1)(c1ccccc1)c1ccncc1", "melting point": "98.5 to 99.5 °C"}

Count: 4. Required value per item: melting point.
1. N=C(N)c1c[nH]c2ccc(CCNC(=O)c3ccc(-c4ccnc(OCCN5CCCC5)n4)cc3)cc12
2. CSc1ccc(-c2nn(CC3CC3)c(=S)cc2-c2ccc(Cl)cc2)cc1
3. CCCOc1ccc(-c2scc(-c3ccccc3Cl)c2CC(=O)NC(=N)NCCCO)cc1C
4. N=C(NN)c1cccc(Cc2c[nH]cn2)c1O

["104 to 105 °C", "135 °C", "73 to 76 °C", "188 °C"]

====

observationType: melting point

Solved entries:
{"molecule": "CCOC(=O)CCC(=O)Nc1ccc(-c2c[nH]c(=O)cn2)cc1", "melting point": "250 °C"}
{"molecule": "COC(=O)C1=C(C)NC(C)=C(C(=O)OCOC(=O)C(C)(C)C)C1c1cccc(Cl)c1Cl (single isomer, unassigned; (+))", "melting point": "154 to 155 °C"}

Dear reader, for each entry below, please note its melting point.
1. Cc1[nH]c(=S)n(Nc2cccc(Br)c2)c1-c1ccccc1
2. Cc1cc(-c2ccc(S(N)(=O)=O)cc2)n(-c2ccc(S(C)=O)cc2)c1 (stereo not drawn)
3. Nc1sc(-c2ccccc2)c(CN2CCCCC2)c1C(=O)c1ccc(Cl)cc1
4. CC(=O)NC(CSCc1ccc(-c2nc(-c3ccccc3)cc(-c3ccccc3)n2)cc1)C(=O)O (stereo not drawn)

1: 190 °C; 2: 249 to 251 °C; 3: 185 to 187 °C; 4: 223 to 226 °C

Working through the 6 molecules below one at a time, give melting point for each.
1. O=S(=O)(NCC(O)(Cn1cncn1)c1ccc(Cl)cc1Cl)c1ccc(Cl)cc1 (stereo not drawn)
2. CCC(=O)N[C@H]1CC[C@H](CCN2CCN(c3nccc4ccoc34)CC2)CC1
3. CNC(=O)S(=O)(=O)Nc1sc(CC(C)C)cc1-c1ccc(Cn2c(-c3ccccc3)nc(OC)c2C=O)cc1
4. CNC(=S)c1ccncc1C1c2ccccc2CC1(C)C (stereo not drawn)
5. Oc1cccc(/C=C/c2nc(-c3ccccc3)cs2)c1
6. O=C1NCCC[C@@H]1NS(=O)(=O)c1ccc(C(F)(F)F)cc1

1. 182 to 183 °C
2. 188 °C
3. 102 to 103 °C
4. 187 to 189 °C
5. 150 to 151 °C
6. 181 to 183 °C

For every item below, please supply its melting point.
1. CC1(C)OC(=O)Nc2ccc(/C(=C/C(N)=O)c3ccccc3)cc21
2. COc1cc(CCl)ccc1OCc1coc(-c2ccco2)n1
3. O=C(Nc1ccc(-n2nc(C3CC3)cc2C2CC2)c(F)c1)c1c(F)cccc1F

1: 219 to 220 °C; 2: 123 to 124 °C; 3: 182 to 186 °C

For each of the items listed, what is its melting point?
1. CS(=O)c1n[nH]c(-c2cc(C(C)(C)C)c(O)c(C(C)(C)C)c2)n1 (stereo not drawn)
2. COCCOCc1c(CN(C)C[C@@H](O)c2ccco2)sc2c(=O)c(C(=O)NCc3ccc(Cl)cc3)cn(C)c12
3. C(=CCN(c1ccccc1)c1cccc2ccccc12)CN(c1ccccc1)c1cccc2ccccc12
4. CCCCN(Cc1ccc(-c2ccccc2S(=O)(=O)NC(=O)c2ccccc2Cl)cc1)C(=O)N(C)c1ccccc1C(F)(F)F
5. Cn1nc2c(cc1=O)CCSc1ccccc1-2

1. 135 to 145 °C
2. 146 to 147 °C
3. 140 to 142 °C
4. > 60 °C
5. 139 to 140 °C

For every item below, please supply its melting point.
1. OCCc1nccn1CCCCc1ccc(OCc2coc(/C=C/c3ccc(F)cc3)n2)cc1
2. NCc1ccc(-c2ccccc2-c2nnn[nH]2)cc1
3. CC12CC3OC3CC1CCC1C2CCC2(C)C(O)C(N3CCCCC3)CC12 (stereo not drawn)
4. CCSC(c1ccc(Cl)cc1Cl)C(C(=O)C(C)(C)CF)n1cncn1 (stereo not drawn)
5. CSC(=C[N+](=O)[O-])NCCSCc1ccccn1
6. N#Cc1cc([N+](=O)[O-])ccc1N1CCC(OC(=O)c2ccccc2)CC1
7. Cc1c(-c2ccccc2)c(C2=CCNC2)c2oc(C3CC3)nc2c1C#N

130 to 132 °C
> 260 °C
153 to 165 °C
130 °C
95.5 to 96.5 °C
143 to 145 °C
172 to 174 °C

Hi, could you look up melting point for each item in my list?
1. CCCOc1ccccc1-c1nc(O)cc(C(=O)NC)n1
2. COC(=O)C1(OC)CC(O)C(NC(C)=O)C(C(O)C(O)CO)O1 (stereo not drawn)
3. CN1CCN(c2nccc(Oc3ccc(NC(=O)c4cc(F)cc(N5CCOCC5)c4)c4ccccc34)n2)CC1

["165 to 166 °C", "161 to 167 °C", "195 to 197 °C"]

Batch request: melting point for each of the following molecules.
1. CCOC(=O)c1c(C)nc2c(nc(C)n2C)c1Cl
2. CCOC(=O)C1=C(C)NC(=S)N(C(=O)OCC)C1c1cccc(C)c1 (stereo not drawn)
3. COc1ccccc1CCC(=O)Nc1sc2c(c1C#N)CCN(C(=O)OC(C)(C)C)C2
4. Cc1ccc2[nH]c(C(=O)OCc3ccccc3)cc2c1
5. CS(=O)(=O)c1ccc(-c2cc(=O)n(C3CCCC3)nc2-c2ccc(F)cc2)cc1

1: 73 to 75 °C; 2: 93 to 95 °C; 3: 198 °C; 4: 150 to 152 °C; 5: 191 to 192 °C

Provide the reported melting point of each entry below, same order.
1. CCCCCCOc1c(OC)cc(C(=O)NN=C2CCCCC2=Cc2ccccc2)cc1OC
2. COc1cccc(OC)c1C(=O)NC(=S)NNC(=O)c1cnc2ccccc2c1
3. Cn1ncnc1COc1cc(N)c2cnn(-c3ccccc3)c2n1

1: 158 to 160 °C; 2: 242 to 243 °C; 3: 164 to 166 °C

Every entry's value here was drawn from a melting point compilation (Tetko et al.; mined from patent text by program, amines drawn as free bases though some values may be those of a salt).
